- target or test system: human recombinant dopamine D2L receptor (Homo sapiens)
- Sequence (P14416 whole entry): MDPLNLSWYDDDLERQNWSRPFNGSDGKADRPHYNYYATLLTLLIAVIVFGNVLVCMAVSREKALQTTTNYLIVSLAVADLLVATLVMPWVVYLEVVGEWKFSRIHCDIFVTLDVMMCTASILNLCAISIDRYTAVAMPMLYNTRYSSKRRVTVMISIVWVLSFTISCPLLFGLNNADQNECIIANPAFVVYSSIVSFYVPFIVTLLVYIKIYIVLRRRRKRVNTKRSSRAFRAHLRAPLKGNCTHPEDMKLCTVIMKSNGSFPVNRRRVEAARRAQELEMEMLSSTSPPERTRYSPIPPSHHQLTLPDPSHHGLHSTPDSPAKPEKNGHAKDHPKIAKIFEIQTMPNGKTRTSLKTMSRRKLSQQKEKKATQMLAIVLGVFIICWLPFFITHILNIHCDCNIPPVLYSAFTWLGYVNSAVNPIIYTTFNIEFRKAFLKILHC
- protocol details: Dopamine D2L radioligand binding assay
- condition summary: [3H]Spiperone specific binding
Recorded Percent Inhibition of ligand binding, Dopamine (1 μM ligand conc.) D2L, one value per entry.
quantity: Percent Inhibition of ligand binding, Dopamine (1 μM ligand conc.) D2L (%)

>>> recorded_value("C/C(=C\\n1c2c(c3cc(C)ccc31)C1CCN(C2)C1)c1ccc(Cl)cc1Cl (stereo not shown) [Compound 34]")
0
>>> recorded_value("C/C(=C\\n1c2c(c3cc(C)ccc31)C1CCN(C2)C1)c1ccc(F)cc1 (stereo not shown)")
25
>>> recorded_value("C=C(Cn1c2c(c3cc(C)ccc31)C1CCN(C2)C1)c1ccc(F)cc1 (stereo not shown)")
21
>>> recorded_value("C/C(=C\\n1c2c(c3cc(C)ccc31)C1CCN(C2)C1)c1ccc(Cl)cc1Cl (stereo not shown) [Compound 33]")
"−6"

---

Recorded inhibition at 1 µM, one value per entry.
- target or test system: human recombinant dopamine D2L receptor (Homo sapiens)
- protocol details: Dopamine D2L radioligand binding assay
- condition summary: [3H]Spiperone specific binding, read-out: Percent Inhibition of ligand binding, Dopamine (1 μM ligand conc.) D2L
quantity: inhibition at 1 µM (%)

>>> recorded_value("C/C(=C\\n1c2c(c3cc(C)ccc31)C1CCN(C2)C1)c1ccccc1F (stereo not drawn) [Compound 38]")
1
>>> recorded_value("Cc1ccc(C(O)Cn2c3c(c4cc(C)ccc42)C2CCN(C3)C2)cc1 (stereo not drawn) [Compound 5]")
6
>>> recorded_value("COc1ccc(C(O)Cn2c3c(c4cc(C)ccc42)C2CCN(C3)C2)cc1OC (stereo not drawn) [Compound 8]")
-16
>>> recorded_value("Cc1ccc(C(C)(O)Cn2c3c(c4cc(C)ccc42)C2CCN(C3)C2)cc1 (stereo not drawn) [Compound 20]")
9
>>> recorded_value("Cc1ccc2c(c1)c1c(n2CC(O)c2ccc(F)cc2)CN2CCC1C2 (stereo not drawn) [Compound 31]")
2
>>> recorded_value("C/C(=C\\n1c2c(c3cc(C)ccc31)C1CCN(C2)C1)c1ccc(F)cc1 (stereo not drawn) [Compound 22]")
21
>>> recorded_value("Cc1ccc2c(c1)c1c(n2C(=O)Cc2ccc(Cl)cc2)CN2CCC1C2 (stereo not drawn) [Compound 36]")
3
>>> recorded_value("Cc1ccc2c(c1)c1c(n2CC(C)(O)c2ccc(F)c(F)c2)CN2CCC1C2 (stereo not drawn) [Compound 15]")
0
>>> recorded_value("Cc1ccc2c(c1)c1c(n2CC(C)(O)c2ccc(F)cc2)CN2CCC1C2 (stereo not drawn) [Compound 2]")
7

---

- target or test system: human recombinant histamine H1 receptor (Homo sapiens)
- Sequence (P35367 whole entry): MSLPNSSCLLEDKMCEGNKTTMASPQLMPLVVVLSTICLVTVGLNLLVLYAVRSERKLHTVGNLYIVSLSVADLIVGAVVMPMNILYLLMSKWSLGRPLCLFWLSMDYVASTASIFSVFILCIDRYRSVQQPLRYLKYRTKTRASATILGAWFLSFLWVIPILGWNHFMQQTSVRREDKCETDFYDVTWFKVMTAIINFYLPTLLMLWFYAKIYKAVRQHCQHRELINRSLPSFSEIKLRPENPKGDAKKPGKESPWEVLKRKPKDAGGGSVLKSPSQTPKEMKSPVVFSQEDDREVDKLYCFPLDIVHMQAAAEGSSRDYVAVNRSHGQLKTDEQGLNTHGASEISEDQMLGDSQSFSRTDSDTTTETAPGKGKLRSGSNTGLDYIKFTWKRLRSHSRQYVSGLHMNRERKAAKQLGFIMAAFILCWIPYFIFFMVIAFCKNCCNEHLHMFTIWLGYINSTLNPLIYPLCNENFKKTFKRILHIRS
- protocol details: Histamine H1 radioligand binding assay
- condition summary: [3H]Pyrilamine specific binding, read-out: Percentage Inhibition, Histamine Binding (1 μM) H1
Recorded inhibition at 1 µM, one value per entry.
quantity: inhibition at 1 µM (%)

>>> recorded_value("Cc1ccc2c(c1)c1c(n2CC(C)(O)c2ccc(F)c(Cl)c2)CN2CCC1C2 (centres unmarked)")
21
>>> recorded_value("C/C(=C\\n1c2c(c3cc(C)ccc31)C1CCN(C2)C1)c1ccccc1F (centres unmarked)")
38
>>> recorded_value("Cc1ccc(C(C)(O)Cn2c3c(c4cc(C)ccc42)C2CCN(C3)C2)cc1 (centres unmarked)")
21
>>> recorded_value("Cc1ccc2c(c1)c1c(n2CCc2ccc(C(F)(F)F)nc2)CN2CCC1C2 (centres unmarked)")
32
>>> recorded_value("C/C(=C\\n1c2c(c3cc(C)ccc31)C1CCN(C2)C1)c1ccc(F)c(F)c1 (centres unmarked)")
26
>>> recorded_value("Cc1ccc2c(c1)c1c(n2CC(C)(O)c2ccc(Cl)c(Cl)c2)CN2CCC1C2 (centres unmarked)")
24
>>> recorded_value("C/C(=C\\n1c2c(c3cc(C)ccc31)C1CCN(C2)C1)c1cccnc1 (centres unmarked)")
20
>>> recorded_value("C/C(=C/n1c2c(c3cc(C)ccc31)C1CCN(C2)C1)c1ccccc1F (centres unmarked)")
78
